Tested on: Sindbis virus TE/5'2J-GFP
assay-details: percent infected (GFP+ in RFP+ ISG-expressing cells); higher = more infection (less antiviral activity)
recorded-conditions: experiment: confirmatory screen 1; BHK/HA-Zeo (control)
experimental-endpoint: percent infected
Note: a bare number is incomplete; add the unit.

The sequence listed as MQEGELAISPISPVAAMPPLGTHVQARCEAQINLLGEGGICKLPGRLRIQPALWSREDVLHWLRWAEQEYSLPCTAEHGFEMNGRALCILTKDDFRHRAPSSGDVLYELLQYIKTQRRALVCGPFFGGIFRLKTPTQHSPVPPEEVTGPSQMDTRRGHLLQPPDPGLTSNFGHLDDPGLARWTPGKEESLNLCHCAELGCRTQGVCSFPAMPQAPIDGRIADCRLLWDYVYQLLLDTRYEPYIKWEDKDAKIFRVVDPNGLARLWGNHKNRVNMTYEKMSRALRHYYKLNIIKKEPGQKLLFRFLKTPGKMVQDKHSHLEPLESQEQDRIEFKDKRPEISP [ETV7] has a reported percent infected of 95.3%

----------
System: Sindbis virus TE/5'2J-GFP
assay-details: percent infected (GFP+ in RFP+ ISG-expressing cells); higher = more infection (less antiviral activity)
recorded-conditions: experiment: confirmatory screen 1; BHK/NZAP-Zeo (ZAP)
experimental-endpoint: percent infected (%)
Dear colleague, please return just the value in %, with no unit written.

Some solved cases for reference:
The sequence listed as MKVSAAALAVILIATALCAPASASPYSSDTTPCCFAYIARPLPRAHIKEYFYTSGKCSNPAVVFVTRKNRQVCANPEKKWVREYINSLEMS [CCL5] has a reported percent infected of 69.5

Value of percent infected reported for the sequence MDFKIEHTWDGFPVKHEPVFIRLNPGDRGVMMDISAPFFRDPPAPLGEPGKPFNELWDYEVVEAFFLNDITEQYLEVELCPHGQHLVLLLSGRRNVWKQELPLSFRMSRGETKWEGKAYLPWSYFPPNVTKFNSFAIHGSKDKRSYEALYPVPQHELQQGQKPDFHCLEYFKSFNFNTLLGEEWKQPESDLWLIEKCDI [C4orf33] is 85.8

Input MPGKKARKNAQPSPARAPAELEVECATQLRRFGDKLNFRQKLLNLISKLFCSGT [PMAIP1] . Output percent infected: 87.9

***
Form: sequence = MKEDCLPSSHVPISDSKSIQKSELLGLLKTYNCYHEGKSFQLRHREEEGTLIIEGLLNIAWGLRRPIRLQMQDDREQVHLPSTSWMPRRPSCPLKEPSPQNGNITAQGPSIQPVHKAESSTDSSGPLEEAEEAPQLMRTKSDASCMSQRRPKCRAPGEAQRIRRHRFSINGHFYNHKTSVFTPAYGSVTNVRVNSTMTTLQVLTLLLNKFRVEDGPSEFALYIVHESGERTKLKDCEYPLISRILHGPCEKIARIFLMEADLGVEVPHEVAQYIKFEMPVLDSFVEKLKEEEEREIIKLTMKFQALRLTMLQRLEQLVEAK [RASSF4] ; percent infected = 56.3

Lookup result for MNTRNRVVNSGLGASPASRPTRDPQDPSGRQGELSPVEDQREGLEAAPKGPSRESVVHAGQRRTSAYTLIAPNINRRNEIQRIAEQELANLEKWKEQNRAKPVHLVPRRLGGSQSETEVRQKQQLQLMQSKYKQKLKREESVRIKKEAEEAELQKMKAIQREKSNKLEEKKRLQENLRREAFREHQQYKTAEFLSKLNTESPDRSACQSAVCGPQSSTWKLPILPRDHSWARSWAYRDSLKAEENRKLQKMKDEQHQKSELLELKRQQQEQERAKIHQTEHRRVNNAFLDRLQGKSQPGGLEQSGGCWNMNSGNSWGI [EPSTI1] ; measured percent infected: 68.2

Given item MPITRMRMRPWLEMQINSNQIPGLIWINKEEMIFQIPWKHAAKHGWDINKDACLFRSWAIHTGRYKAGEKEPDPKTWKANFRCAMNSLPDIEEVKDQSRNKGSSAVRVYRMLPPLTKNQRKERKSKSSRDAKSKAKRKSCGDSSPDTFSDGLSSSTLPDDHSSYTVPGYMQDLEVEQALTPALSPCAVSSTLPDWHIPVEVVPDSTSDLYNFQVSPMPSTSEATTDEDEEGKLPEDIMKLLEQSEWQPTNVDGKGYLLNEPGVQPTSVYGDFSCKEEPEIDSPGGDIGLSLQRVFTDLKNMDATWLDSLLTPVRLPSIQAIPCAP [IRF1] , the value recorded as its percent infected is 10.7

----------
# percent infected per entry
Tested on: Sindbis virus TE/5'2J-GFP
assay-details: percent infected (GFP+ in RFP+ ISG-expressing cells); higher = more infection (less antiviral activity)
recorded-conditions: experiment: confirmatory screen 3; BHK/NZAP-Zeo (ZAP)
# unit: % | format: bare number

// worked examples, percent infected included
Field percent infected (entry MIAAQAKLVYQLNKYYTERCQARKAAIAKTIREVCKVVSDVLKEVEVQEPRFISSLSEIDARYEGLEVISPTEFEVVLYLNQMGVFNFVDDGSLPGCAVLKLSDGRKRSMSLWVEFITASGYLSARKIRSRFQTLVAQAVDKCSYRDVVKMIADTSEVKLRIRERYVVQITPAFKCTGIWPRSAAQWPMPHIPWPGPNRVAEVKAEGFNLLSKECYSLTGKQSSAESDAWVLQFGEAENRLLMGGCRNKCLSVLKTLRDRHLELPGQPLNNYHMKTLLLYECEKHPRETDWDESCLGDRLNGILLQLISCLQCRRCPHYFLPNLDLFQGKPHSALESAAKQTWRLAREILTNPKSLDKL [MAB21L2] ) reads 86.9

Value of percent infected reported for the sequence MLQRGLWPWRTRLLPTPGTWRPARPWPLPPPPQVLRVKLCGNVKYYQSHHYSTVVPPDEITVIYRHGLPLVTLTLPSRKERCQFVVKPMLSTVGSFLQDLQNEDKGIKTAAIFTADGNMISASTLMDILLMNDFKLVINKIAYDVQCPKREKPSNEHTAEMEHMKSLVHRLFTILHLEESQKKREHHLLEKIDHLKEQLQPLEQVKAGIEAHSEAKTSGLLWAGLALLSIQGGALAWLTWWVYSWDIMEPVTYFITFANSMVFFAYFIVTRQDYTYSAVKSRQFLQFFHKKSKQQHFDVQQYNKLKEDLAKAKESLKQARHSLCLQMQVEELNEKN [CCDC109B] is 93.6

Please examine the following record next.
Lab note: MDAPHSKAALDSINELPENILLELFTHVPARQLLLNCRLVCSLWRDLIDLMTLWKRKCLREGFITKDWDQPVADWKIFYFLRSLHRNLLRNPCAEEDMFAWQIDFNGGDRWKVESLPGAHGTDFPDPKVKKYFVTSYEMCLKSQLVDLVAEGYWEELLDTFRPDIVVKDWFAARADCGCTYQLKVQLASADYFVLASFEPPPVTIQQWNNATWTEVSYTFSDYPRGVRYILFQHGGRDTQYWAGWYGPRVTNSSIVVSPKMTRNQASSEAQPGQKHGQEEAAQSPYRAVVQIF [FBXO6] gave percent infected of 91.5

----------
Test system: Sindbis virus TE/5'2J-GFP
assay-details: percent infected (GFP+ in RFP+ ISG-expressing cells); higher = more infection (less antiviral activity)
recorded-conditions: experiment: confirmatory screen 1; BHK/HA-Zeo (control)
experimental-endpoint: percent infected (%)
The figure you give is taken to be in %; do not add the unit.

response.value for MDAPHSKAALDSINELPENILLELFTHVPARQLLLNCRLVCSLWRDLIDLMTLWKRKCLREGFITKDWDQPVADWKIFYFLRSLHRNLLRNPCAEEDMFAWQIDFNGGDRWKVESLPGAHGTDFPDPKVKKYFVTSYEMCLKSQLVDLVAEGYWEELLDTFRPDIVVKDWFAARADCGCTYQLKVQLASADYFVLASFEPPPVTIQQWNNATWTEVSYTFSDYPRGVRYILFQHGGRDTQYWAGWYGPRVTNSSIVVSPKMTRNQASSEAQPGQKHGQEEAAQSPYRAVVQIF [FBXO6] (field: percent infected) = 95.4

# input for lookup
Documented percent infected of MALLDVCGAPRGQRPESALPVAGSGRRSDPGHYSFSMRSPELALPRGMQPTEFFQSLGGDGERNVQIEMAHGTTTLAFKFQHGVIAAVDSRASAGSYISALRVNKVIEINPYLLGTMSGCAADCQYWERLLAKECRLYYLRNGERISVSAASKLLSNMMCQYRGMGLSMGSMICGWDKKGPGLYYVDEHGTRLSGNMFSTGSGNTYAYGVMDSGYRPNLSPEEAYDLGRRAIAYATHRDSYSGGVVNMYHMKEDGWVKVESTDVSDLLHQYREANQ [PSMB8] : 94.7

----------
Catalogue of percent infected readings, one per entry.
System: Sindbis virus TE/5'2J-GFP;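 also: Interferon-defective BHK-21 derivatives, ZAP line overexpressing the rat ZAP N-terminal zinc finger domain fused to Zeocin resistance, GFP scored within live singlet TagRFP+ cells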
assay-details: percent infected (GFP+ in RFP+ ISG-expressing cells); higher = more infection (less antiviral activity)
recorded-conditions: experiment: confirmatory screen 3; BHK/HA-Zeo (control)
State just the number; it will be interpreted in %.

Lab note: measured percent infected of MSSWSRQRPKSPGGIQPHVSRTLFLLLLLAASAWGVTLSPKDCQVFRSDHGSSISCQPPAEIPGYLPADTVHLAVEFFNLTHLPANLLQGASKLQELHLSSNGLESLSPEFLRPVPQLRVLDLTRNALTGLPPGLFQASATLDTLVLKENQLEVLEVSWLHGLKALGHLDLSGNRLRKLPPGLLANFTLLRTLDLGENQLETLPPDLLRGPLQLERLHLEGNKLQVLGKDLLLPQPDLRYLFLNGNKLARVAAGAFQGLRQLDMLDLSNNSLASVPEGLWASLGQPNWDMRDGFDISGNPWICDQNLSDLYRWLQAQKDKMFSQNDTRCAGPEAVKGQTLLAVAKSQ [LRG1] was 93.1
